experiment: log P by HPLC on reversed-phase column (C 18), EEC Directive 79/831 Annex V.A8; assay type: physicochemical; settings: 40° C., 0.1% aqueous formic acid and acetonitrile, linear gradient 10% to 90% acetonitrile
Parameter logP: see the listing below.
EXPERIMENTAL READOUT: logP

>>> experimental_value("C[Si](C)(CN(C(=O)c1cccnc1Cl)C1CC1)c1ccccc1Cl")
3.94
>>> experimental_value("C[Si](C)(CN(C(=O)c1nccnc1C(F)(F)F)C1CC1)c1ccsc1")
3.94
>>> experimental_value("C[Si](C)(CN(C(=O)c1cccnc1C(F)(F)F)C1CC1)c1ccccc1F")
3.96

---

Listed here: items and their measured logP.
test: log P by HPLC on reversed-phase column (C 18), EEC Directive 79/831 Annex V.A8; assay type: physicochemical; settings: 40° C., 0.1% aqueous formic acid and acetonitrile, linear gradient 10% to 90% acetonitrile
EXPERIMENTAL READOUT: logP

>>> experimental_value("C[Si](C)(CNC(=O)c1cccnc1C(F)(F)F)c1ccccc1")
2.92
>>> experimental_value("C[Si](C)(CN(C(=S)c1cccnc1C(F)F)C1CC1)c1ccc(Cl)cc1Cl")
5.13
>>> experimental_value("C[Si](C)(CN(C(=O)c1nccnc1C(F)(F)F)C1CC1)c1ccc(F)cc1Cl")
4.67
>>> experimental_value("C[Si](C)(CN(C(=O)c1ccccc1C(F)(F)F)C1CC1)c1ccc2ccccc2c1")
5.25
>>> experimental_value("C[Si](C)(CN(C(=O)c1cccnc1C(F)F)C1CC1)c1ccccc1")
3.44
>>> experimental_value("C[Si](C)(CNC(=O)c1cccnc1C(F)(F)F)c1ccccc1Cl")
3.25
>>> experimental_value("C[Si](C)(Cc1ccccc1Cl)CN(C(=O)c1cccnc1C(F)(F)F)C1CC1")
4.59
>>> experimental_value("C[Si](C)(CN(C(=O)c1cccnc1Cl)C1CC1)c1cccc(Cl)c1")
3.96
>>> experimental_value("C[Si](C)(CN(C(=O)c1cccnc1C(F)F)C1CC1)c1ccccc1F")
3.51
>>> experimental_value("C[Si](C)(CN(C(=O)c1cccnc1C(F)F)C1CC1)c1cccc(Cl)c1")
3.87

---

test system: Septoria tritici; assay: In vivo preventive test on Septoria tritici (wheat); conditions: preventive spray, 500 ppm of active ingredient, grading 24 days after contamination
The entries below come with measured Efficacy values attached.
EXPERIMENTAL READOUT: Efficacy (%)

>>> experimental_value("Cc1ccccc1[Si](C)(C)CN(C(=O)c1nccnc1C(F)(F)F)C1CC1")
79
>>> experimental_value("C[Si](C)(CN(C(=O)c1cccnc1C(F)(F)F)C1CC1)c1ccccc1")
100
>>> experimental_value("C[Si](C)(CN(C(=O)c1nccnc1C(F)(F)F)C1CC1)c1ccccc1C(F)(F)F")
93
>>> experimental_value("Cc1ccccc1[Si](C)(C)CN(C(=O)c1cccnc1C(F)F)C1CC1")
79
>>> experimental_value("C[Si](C)(CNC(=O)c1cccnc1C(F)(F)F)c1ccccc1Cl")
96
>>> experimental_value("C[Si](C)(CN(C(=O)c1cccnc1C(F)(F)F)C1CC1)c1ccc(F)cc1Cl")
93
>>> experimental_value("C[Si](C)(CN(C(=O)c1cccnc1C(F)F)C1CC1)c1ccccc1F")
71
>>> experimental_value("CC[Si](C)(CN(C(=O)c1cccnc1C(F)F)C1CC1)c1ccccc1Cl (stereo not drawn)")
90
>>> experimental_value("C[Si](C)(CN(C(=O)c1nccnc1C(F)(F)F)C1CC1)c1ccccc1F")
93
>>> experimental_value("CCc1ccccc1[Si](C)(C)CN(C(=O)c1nccnc1C(F)(F)F)C1CC1")
86
>>> experimental_value("C[Si](C)(CNC(=O)c1cccnc1Cl)c1ccccc1Cl")
96
>>> experimental_value("C[Si](C)(CNC(=O)c1cccnc1C(F)F)c1ccccc1")
100
>>> experimental_value("C[Si](C)(CN(C(=O)c1nccnc1C(F)(F)F)C1CC1)c1ccc(F)cc1Cl")
97
>>> experimental_value("CC1=C(C(=O)NC[Si](C)(C)c2ccccc2Cl)SCCO1")
100
>>> experimental_value("C[Si](C)(CN(C(=O)c1nccnc1C(F)(F)F)C1CC1)c1cc(F)ccc1Cl")
100
>>> experimental_value("C[Si](C)(CNC(=O)c1cccnc1Cl)c1ccccc1")
90
>>> experimental_value("C[Si](C)(CN(C(=O)c1cccnc1C(F)(F)F)C1CC1)c1cc(F)ccc1Cl")
93
>>> experimental_value("C[Si](C)(CN(C(=O)c1nccnc1C(F)(F)F)C1CC1)c1ccccc1Cl")
100
